# Lookup of reported IC50 keyed by entry
- Test system: SCLC
- ASSAY_PROCEDURE: Cytotoxicity in SCLC (human lung carcinoma) cell line.
- Assay type: functional, cell-based
Give the value, in units of nM, as a plain number.

Check out these entries, answers already filled in.
- COMPOUND_STRUCTURE: "O=C1c2ccccc2C(=O)c2c1oc1cc(O)cc(O)c21"
  IC50 / nM: 1030
- COMPOUND_STRUCTURE: "O=C1C(Cl)=C(Oc2cc(O)cc(O)c2)C(=O)c2c(O)ccc(O)c21"
  IC50 / nM: 500
- COMPOUND_STRUCTURE: "COc1cccc(OC2=C(Cl)C(=O)c3c(O)ccc(O)c3C2=O)c1"
  IC50 / nM: 500

INPUT: Entry COc1cc(OC)cc(OC2=C(Cl)C(=O)c3c(O)ccc(O)c3C2=O)c1 : reported IC50 = ?
OUTPUT: 750

INPUT: Entry COc1cc(OC)cc(OC2=C(Cl)C(=O)c3c(OC)ccc(OC)c3C2=O)c1 : reported IC50 = ?
OUTPUT: 2000

INPUT: Entry COc1c(Cl)c(Cl)c(OC)c2c1C(=O)C=CC2=O : reported IC50 = ?
OUTPUT: 750

INPUT: Entry COc1cccc(OC2=C(Oc3cccc(OC)c3)C(=O)c3c(OC)ccc(OC)c3C2=O)c1 : reported IC50 = ?
OUTPUT: 1000

INPUT: Entry O=C1C=CC(=O)c2c(O)c(Oc3ccccc3)c(Cl)c(O)c21 : reported IC50 = ?
OUTPUT: 250

INPUT: Entry COc1ccc(OC)c2c1C(=O)C(Cl)=C(Cl)C2=O : reported IC50 = ?
OUTPUT: 1000

INPUT: Entry O=C1C=CC(=O)c2c(O)c(Cl)c(Cl)c(O)c21 : reported IC50 = ?
OUTPUT: 300

INPUT: Entry COc1ccc2c3c(oc2c1)C(=O)c1c(OC)ccc(OC)c1C3=O : reported IC50 = ?
OUTPUT: 1000
